# SYSTEM: SIRT1 (Homo sapiens)
# ASSAY COMMENT: Trp mass spectrometry assay of SIRT1 activation (Ac-R-H-K-K(Ac)-W-NH2 peptide)
# Assay type: biochemical
# REPORTED CONDITIONS: Trp peptide 0.5 μM, 120 μM βNAD+, 10 nM SIRT1, 25 min at 25° C.; relative to control (100%)
REPORTED METRIC: TRP MAX RESP (percent maximum fold activation)

Use these answered entries as a reference point.
O=C(NC1CC1(F)F)c1ccc2c(n1)N(C(=O)Nc1cc(OC[C@H](O)CO)ccn1)[C@H]1CCN2C1 (single isomer, unassigned) :: B (Fold Activation<150%)
Cc1ccc2c(NC(=O)N3c4nc(C(=O)NC5CC5(F)F)ccc4N4CC[C@H]3C4)n[nH]c2n1 (single isomer, unassigned) :: A (Fold activation≥150%)
O=C(NC(CCO)C(F)(F)F)c1ccc2c(n1)N(C(=O)Nc1ccccn1)[C@H]1CCN2C1 (single isomer, unassigned) :: A (Fold activation≥150%)
O=C(NC1CC1(F)F)c1ccc2c(n1)N(C(=O)Nc1cc(OCCO)ccn1)[C@H]1CCN2C1 (single isomer, unassigned) :: A (Fold activation≥150%)
C=CCNC(=O)c1ccc2c(n1)N(C(=O)Nc1cc(OC[C@H](O)CO)ccn1)[C@H]1CCN2C1 :: B (Fold Activation<150%)

Next compound, please.
The recorded TRP MAX RESP (percent maximum fold activation) for NC(CNC(=O)c1ccc2c(n1)N(C(=O)Nc1cc(OC[C@H](O)CO)ccn1)[C@H]1CCN2C1)C(F)(F)F (single isomer, unassigned) is B (Fold Activation<150%)

* * *

For each entry below, report its Emax value.
# SYSTEM: SIRT1 (Homo sapiens, UniProt Q96EB6)
# Sequence (Q96EB6 whole entry): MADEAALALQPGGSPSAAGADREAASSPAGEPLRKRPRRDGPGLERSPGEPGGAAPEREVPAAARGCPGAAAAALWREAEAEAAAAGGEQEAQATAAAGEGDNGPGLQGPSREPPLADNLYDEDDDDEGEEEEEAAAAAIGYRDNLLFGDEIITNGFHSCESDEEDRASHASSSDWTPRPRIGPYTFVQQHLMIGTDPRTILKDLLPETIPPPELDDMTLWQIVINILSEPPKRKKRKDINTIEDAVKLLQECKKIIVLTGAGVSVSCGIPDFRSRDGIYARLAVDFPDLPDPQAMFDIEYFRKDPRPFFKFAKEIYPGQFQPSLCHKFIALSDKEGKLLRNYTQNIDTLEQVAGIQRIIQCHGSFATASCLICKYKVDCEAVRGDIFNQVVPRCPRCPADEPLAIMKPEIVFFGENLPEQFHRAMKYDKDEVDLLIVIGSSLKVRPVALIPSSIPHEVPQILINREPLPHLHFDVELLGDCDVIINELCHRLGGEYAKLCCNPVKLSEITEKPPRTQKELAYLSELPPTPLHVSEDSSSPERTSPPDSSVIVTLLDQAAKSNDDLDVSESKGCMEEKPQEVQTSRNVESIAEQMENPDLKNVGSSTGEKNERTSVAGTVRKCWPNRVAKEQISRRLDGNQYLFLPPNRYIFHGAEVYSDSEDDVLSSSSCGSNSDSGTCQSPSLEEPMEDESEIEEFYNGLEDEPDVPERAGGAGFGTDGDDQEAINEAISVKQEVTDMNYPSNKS
# ASSAY COMMENT: Trp mass spectrometry assay of SIRT1 activation (Ac-R-H-K-K(Ac)-W-NH2 peptide)
# Assay type: biochemical
# REPORTED CONDITIONS: 25 min, Trp peptide 0.5 μM, 120 μM βNAD+, 10 nM SIRT1, 25 min at 25° C.; relative to control (100%); read-out: TRP MAX RESP (percent maximum fold activation)

O=C(NC[C@H](O)C(F)(F)F)c1ccc2c(n1)N(C(=O)Nc1ccccn1)[C@H]1CCN2C1 [Example 52] :: > 150%
C[C@@H](NC(=O)c1ccc2c(n1)N(C(=O)Nc1cc(NCCO)ccn1)[C@H]1CCN2C1)C(F)(F)F [Example 309] :: < 150%
O=C(NC1(CO)CC1)c1ccc2c(n1)N(C(=O)Nc1ccccn1)[C@H]1CCN2C1 [Example 17] :: > 150%
CC(C)[C@@H](NC(=O)c1ccc2c(n1)N(C(=O)Nc1ccccn1)[C@H]1CCN2C1)C(F)(F)F [Example 29] :: > 150%
C=CCNC(=O)c1ccc2c(n1)N(C(=O)Nc1cc(OC[C@H](O)CO)ccn1)[C@H]1CCN2C1 [Example 178] :: > 150%
O=C(O)c1ccc(NC(=O)N2c3nc(C(=O)NCC(F)(F)F)ccc3N3CC[C@H]2C3)nc1 [Example 213] :: > 150%

Next compound, please.
The recorded Emax for C[C@@H](NC(=O)c1nc2c(cc1Cl)N1CC[C@@H](C1)N2C(=O)Nc1ccccn1)C(F)(F)F [Example 280] is > 150%
